Origin of values: patent US10106515B2

Recorded IC50 by entry
- STUDY_SYSTEM: recombinant human CXCR2 (Homo sapiens, UniProt P25025)
- Construct: TEV protease site; Gal4-VP16 transcription factor
- Sequence (P25025 1-360): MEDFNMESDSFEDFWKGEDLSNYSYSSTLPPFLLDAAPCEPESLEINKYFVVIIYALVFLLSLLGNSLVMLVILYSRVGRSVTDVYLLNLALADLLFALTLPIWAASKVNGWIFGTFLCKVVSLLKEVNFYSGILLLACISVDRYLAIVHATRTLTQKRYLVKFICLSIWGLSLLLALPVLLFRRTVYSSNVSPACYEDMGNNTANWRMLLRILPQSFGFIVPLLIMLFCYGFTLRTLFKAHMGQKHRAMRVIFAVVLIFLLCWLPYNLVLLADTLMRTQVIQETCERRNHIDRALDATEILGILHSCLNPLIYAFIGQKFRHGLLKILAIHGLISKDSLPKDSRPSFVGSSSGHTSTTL
- PROCEDURE_TEXT: CXCR2 Tango assay
- Format: cell-based
- TEST_CONDITIONS: mean pIC50 of multiple test results; stimulated with 80 nM hCXCL1; reporter gene blue/green emission ratio; read-out: pIC50 (CXCR2 Tango assay) (converted)
Structures can show the parent of a compound that is named as a salt.

Some entries whose results are on file:
CC1=CCC[C@H]1NC(=O)Nc1ccc(Cl)c(S(=O)(=O)C2CCCOC2)c1O (stereo partly drawn) = ≤ 10 nM
CC1=CCC[C@H]1NC(=O)Nc1ccc(Cl)c(S(=O)(=O)C(F)(F)CN(C)C)c1O = ≤ 10 nM
CC1=CCC[C@H]1NC(=O)Nc1ccc(Cl)c(S(=O)(=O)C2(F)CCN(C3CCC3)CC2)c1O [Compound 73, trifluoroacetic acid salt] = ≤ 1 nM
CC1=CCC[C@H]1NC(=O)Nc1ccc(Cl)c(S(=O)(=O)N2CCN(C)CC2)c1O [Compound 141, trifluoroacetic acid salt] = ≤ 10 nM

Record lookup: for recombinant human CXCR2 (Homo sapiens, UniProt P25025), what IC50 belongs to `CC1=CCC[C@H]1NC(=O)Nc1ccc(Cl)c(S(=O)(=O)C(C)(C)C(F)(F)F)c1O` ?
≤ 1 nM

Hi! What's the reported IC50 for CC1=CCCC1NC(=O)Nc1ccc(Cl)c(S(=O)(=O)[C@H]2CC[C@H](N3CCC3)CC2)c1O (stereo partly drawn) [Compound 97, trifluoroacetic acid salt] on recombinant human CXCR2 (Homo sapiens, UniProt P25025)?
≤ 10 nM

Requested read-out IC50, target or system recombinant human CXCR2 (Homo sapiens, UniProt P25025), entry CC(F)(F)S(=O)(=O)c1c(Cl)ccc(NC(=O)NC2CCC=C2Cl)c1O (stereo not drawn)
≤ 1 nM

Record lookup: for recombinant human CXCR2 (Homo sapiens, UniProt P25025), what IC50 belongs to CC1=CCCC1NC(=O)Nc1ccc(Cl)c(S(=O)(=O)[C@H]2C[C@H](CN(C)C)C2)c1O (stereo partly drawn) [Compound 131, trifluoroacetic acid salt] ?
≤ 10 nM

// lookup IC50 | system=recombinant human CXCR2 (Homo sapiens, UniProt P25025) | key= CC1=CCCC1NC(=O)Nc1ccc(Cl)c(S(=O)(=O)N2CCC(F)(F)CC2)c1O (stereo not drawn)
≤ 10 nM

# returns recorded IC50 (system: recombinant human CXCR2 (Homo sapiens, UniProt P25025)) for CC1=CCC[C@H]1NC(=O)Nc1ccc(Cl)c(S(=O)(=O)C2(F)CCOC2)c1O (stereo partly drawn)
≤ 1 nM
